Tested on: CP250
Experiment: qHTS profiling for inhibitors of Plasmodium falciparum proliferation (AID 504749);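 further: 0% = DMSO vehicle and full inhibition = artemisinin control; nearly all actives have a fitted effect of over 60% in size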
Settings: P. falciparum in erythrocytes, SYBR Green DNA, 72 h; series mostly up to 28.7 µM
Records with an inconclusive call do not appear. Active and inactive are the calls of the source. The call rests on the fitted dose curve; in most records, active means well fitted inhibition curve with a large enough effect; inconclusive means small, poorly fitted or top-dose-only effect; inactive means flat fitted curve, though single readings scatter. Numbered stars: 1 amine (or outer) side, 2 acyl side, 3 side chain; on linkers, the order of the positions; unused ones are H or OH. Bridge positions count the residues as written; N and C are the ends. Square brackets hold non-standard residues; d marks the D form. Peptide text beside a SMILES is read from it. * marks the point of attachment. ξ: configuration not given here. ΔAla(Z-3-ureido) = NC(=O)N/C=C(\N)C(=O)O; X1 = NC1=NCCC(C(N[*:1])C(=O)[*:2])N1; ξβ3hOrn = NCCCC(N)CC(=O)*; Dap = NC[CH](N)C(=O)O
outcome-measure: Potency

Worked set:
NCCCC(N)CC(=O)NCC1NC(=O)C(CO)NC(=O)C(N)CNC(=O)C(C2CCN=C(N)N2)NC(=O)/C(=C/NC(N)=O)NC1=O (stereo not drawn) (H-[Dap]S[Dap](ξβ3hOrn)[ΔAla(Z-3-ureido)][X1]; lactam 1-C; configuration not given here) : inactive
CCC1NC(=O)C(NC(=O)c2ncccc2O)C(C)OC(=O)C(c2ccccc2)NC(=O)C2CC(=O)CCN2C(=O)C(Cc2ccccc2)N(C)C(=O)C2CCCN2C1=O (configuration not stated) : inactive
O=C(O)c1ccccc1-c1c2cc(Br)c(=O)c(Br)c-2oc2c(Br)c(O)c(Br)cc12 : inactive
C=CC1=C(C(=O)O)N2C(=O)[C@@H](NC(=O)C(N=O)c3csc(N)n3)[C@H]2SC1 (some centres not stated) : inactive
CC(=O)OCC1=C(C(=O)O)N2C(=O)C(NC(=O)Cc3ccccc3)C2SC1 (configuration not stated) : inactive

Q: Item NC(=O)CCC1NC(=O)C(Cc2ccccc2)NC(=O)C(Cc2ccc(O)cc2)NC(=O)CCSSCC(C(=O)N2CCCC2C(=O)NC(CCCN=C(N)N)C(=O)NCC(N)=O)NC(=O)C(CC(N)=O)NC1=O (configuration not stated) has what recorded Potency?
Result: inactive

* * *

Molecular target: Cytochrome P450 3A4 (Homo sapiens)
Experiment: qHTS Assay for Activators of Cytochrome P450 3A4 (AID 885); further: nearly all actives have a fitted effect of over 65% in size
Settings: recombinant CYP3A4, Luciferin-PPXE luminescence, 60 min; series mostly up to 57.1 µM
Active and inactive are the calls of the source. The call rests on the fitted dose curve; in most records, active means well fitted activation curve with a large enough effect; inconclusive means small, poorly fitted or top-dose-only effect; inactive means no such curve, though single readings can be large or run the other way.
outcome-measure: activity change, positive = activation

Examples from the recorded data:
COC(=O)c1ccc(C23CC4(C2)[C@H](CN(C)[C@@H]4c2ccccc2)C3c2ccc(Cl)nc2)cc1 (stereo partly drawn) : inactive
CCCCCCN(C(=O)CCCCCN1C(=O)NC(C2CC2)C(C(=O)OCc2ccccc2)=C1C)C(C(=O)NCCCC)c1ccc(OCC(=O)OC)c(C(=O)OC)c1 (stereo not drawn) : inactive
CCC1=C(OC(=O)N(CC)CC)N2C(=O)OC(=NCCOC)[C@]2(Cc2ccccc2)[C@H]2C1=CC[C@H]1C(=O)N(CC)C(=O)[C@H]12 : inactive
COCOc1cc(OC)ccc1C(=O)/C=C\c1ccc2c(c1)OCO2 : -101% [at 11.4 µM] (inactive)
C=CC[C@@H]1C=C[C@@H](O/N=C(/C)CCC(=O)OC[C@@H]2O[C@H](C#Cc3ccccc3)C=C[C@@H]2Oc2ccc(C)cc2)[C@@H](CO)O1 : -97.7% [at 11.4 µM] (inactive)
C=C1C(=O)OC2C[C@@]3(C)CCCC(=C)[C@@H]3CC12 (stereo partly drawn) : inactive
C#CCCCO/N=C1/C[C@@H](O)[C@@H](O)[C@@H]2[C@@H]3C(=O)N(C[C@@H]4CCCO4)C(=O)[C@H]3CC[C@@H]12 : -39.4% [at 11.4 µM] (inactive)
COC(=O)[C@H](Cc1ccccc1)NC(=O)[C@H]1C[C@@H]1[C@H](NC(=O)OCc1ccccc1)c1ccccc1 : inactive

Q: Short answer please: activity change, positive = activation, Cytochrome P450 3A4 (Homo sapiens), entry `COc1ccc2c(=O)c(-c3ccccc3)coc2c1`
Result: inactive

Q: # value lookup — system Cytochrome P450 3A4 (Homo sapiens), readout activity change, positive = activation, item `O=C(/C=C/c1ccc(O)cc1)c1c(O)cc(O)cc1O`
Result: inactive
